# target of assay: Bifunctional protein GlmU (Mycobacterium tuberculosis (strain ATCC 25618 / H37Rv))
# protocol notes: inhibition of mycobacterial GlmU enzyme – biochemical, glucosamine-1-phosphate acetyltransferase (AID 1376);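 further: 0% = complete reaction with vehicle and 100% = reaction without substrate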
# condition summary: M. tuberculosis GlmU acetyltransferase enzyme assay; active compounds read high;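 tested at 30 µM in the primary screen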
Screen size: about 220,000 compounds; about 530 (0.24%) were called active. This is one part of a sample in which actives are shown more often than they occur. Potency and affinity values are given separately.
Recorded inhibition values for a group of molecules are listed next.
Could you give me the number in %? Just the number is fine.

Incoming: Given the molecule O=S(=O)(c1ccc(OCC(O)CN2CCN(c3ccc(F)cc3)CC2)cc1)N1CCOCC1 (stereo not drawn) , what is its reported inhibition?
Outgoing: 3.7

Incoming: And the next one, CCOc1ccc(CNC(=O)CCS(=O)(=O)Cc2ccc(C)cc2)cc1OC ?
Outgoing: 2.73

Incoming: Please do the same for CSC1=NSC2=NC(=O)/C(=C\c3coc4ccccc4c3=O)C(=N)N12 as well.
Outgoing: 7.97

Incoming: Another molecule to check: O=C1c2cccc(O)c2C(=O)c2c(O)cccc21
Outgoing: 6.42

Incoming: How about this molecule: COc1ccc(C2C(C(C)=O)=C(O)C(=O)N2c2cccnc2)c(OC)c1 (stereo not drawn)
Outgoing: 12.9

Further cases:
Incoming: # inhibition lookup, item CCN1C(=O)CC(N2CCOCC2)C1=O (stereo not drawn)
Outgoing: -3.77

Incoming: Moving on to c1ccc2oc(-c3[nH]ncc3CN3CCSCC3)cc2c1
Outgoing: 0.41

Incoming: And for COc1cc2c(cc1NC(=O)Cn1cnc3c1c(=O)n(C)c(=O)n3C)oc1ccccc12 ?
Outgoing: 9.92

Incoming: Same lookup for O=C(CC1C(=O)N(c2ccccc2)C(=O)N1Cc1ccco1)Nc1ccccc1 (stereo not drawn) , please.
Outgoing: 0.18

Incoming: And for Nc1nc(SCC(=O)NCc2ccccc2)n[nH]1 ?
Outgoing: 0.23

Incoming: Try COc1ccc(C2C(C(C)=O)=C(O)C(=O)N2c2nccs2)c(OC)c1 (stereo not drawn) next.
Outgoing: 0.3

Incoming: Try this molecule next: O=C1c2ccccc2S(=O)(=O)c2cc(C(=O)N3CCN(c4ccccc4)CC3)ccc21
Outgoing: -0.95

Incoming: Now consider Cc1ccc(OCC(=O)Nc2ccc(S(=O)(=O)N3CCCCC3)cc2)c([N+](=O)[O-])n1 .
Outgoing: -4.33

Incoming: Please give the result for CSC1=NSC2=NC(=O)/C(=C/c3coc4ccccc4c3=O)C(=N)N12 too.
Outgoing: 8.95

Incoming: Also check Oc1ccc(O)c(Cc2nc3ccccc3[nH]2)c1
Outgoing: 14.4

Incoming: Try COc1ccc(C2C(C(C)=O)=C(O)C(=O)N2c2cccnc2)cc1OC (stereo not drawn) next.
Outgoing: 1.89

Incoming: // same read-out, input: COC(=O)C1C(=O)c2c(C)noc2CC1(C)C (stereo not drawn)
Outgoing: 7.63

Incoming: Now consider CCc1nc2ccccc2[nH]1 and answer again.
Outgoing: -1.65

Incoming: What about this molecule? CNCc1nc2ccccc2[nH]1
Outgoing: 2.1

Incoming: Note, next up: CC(C)(C)S(=O)(=O)c1ccsc1C(=O)O
Outgoing: 0.11

Incoming: Another: N/N=C1\CCCc2c1[nH]c1ccc([N+](=O)[O-])cc21
Outgoing: 0.8

Incoming: Now consider COc1ccc2nc(NS(=O)(=O)c3ccc(NC(C)=O)cc3)sc2c1 .
Outgoing: 4.76

Incoming: Subsequent entry: NS(=O)(=O)c1ccc(NC(=O)CSc2nnc(COc3ccccc3Cl)n2C2CC2)cc1
Outgoing: 13.3
